- System: Phospho-Rb (Ser807/811) in OVCAR3 cells
- Run Description: Phospho-Rb expression inhibition in OVCAR3 cells quantified by In Cell Western
- Assay type: cell-based
- Test Conditions: Homo sapiens, OVCAR-3, 24 hours, read-out: OVCAR-3 pRb IC50
Known IC50 of a selection of molecules

Previously resolved entries follow.
| Structure As Smiles | Measurement |
| --- | --- |
| C[C@@H]1NC(=O)O[C@@H]2C[C@@H](C[C@@H]2F)c2cc([nH]n2)Nc2ccnc(c2)OCCC1(F)F | 10 to 50 nM |
| O=C1NCCCCOc2cncc(c2)Nc2cc(n[nH]2)[C@H]2CC[C@H](C2)O1 | 2 to 10 nM |
| C[C@@H]1Oc2cncc(c2)Nc2cc(n[nH]2)[C@H]2CC[C@H](C2)OC(=O)N[C@H]2C[C@H]1C2 | 2 to 10 nM |

## Input Tell me the measured IC50 of C[C@H]1CCCNC(=O)O[C@@H]2CC[C@@H](C2)c2cc([nH]n2)Nc2cccc(c2)O1 , please.
## Output 10 to 50 nM

---

Known IC50 of a selection of compounds
- Target Entity: CDK9-CYCLIN T1 (Homo sapiens, UniProt P50750)
- Sequence (P50750 whole entry): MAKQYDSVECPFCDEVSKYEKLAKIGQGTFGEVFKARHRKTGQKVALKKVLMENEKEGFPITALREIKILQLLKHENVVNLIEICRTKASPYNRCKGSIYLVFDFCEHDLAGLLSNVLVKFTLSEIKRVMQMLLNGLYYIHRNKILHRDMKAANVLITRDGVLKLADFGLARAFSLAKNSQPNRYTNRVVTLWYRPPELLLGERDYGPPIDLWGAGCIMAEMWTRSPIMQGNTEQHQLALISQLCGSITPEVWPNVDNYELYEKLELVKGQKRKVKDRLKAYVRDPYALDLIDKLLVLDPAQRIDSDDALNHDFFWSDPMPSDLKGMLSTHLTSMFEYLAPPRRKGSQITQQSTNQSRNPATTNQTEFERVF
- Sequence (O60563 whole entry partner): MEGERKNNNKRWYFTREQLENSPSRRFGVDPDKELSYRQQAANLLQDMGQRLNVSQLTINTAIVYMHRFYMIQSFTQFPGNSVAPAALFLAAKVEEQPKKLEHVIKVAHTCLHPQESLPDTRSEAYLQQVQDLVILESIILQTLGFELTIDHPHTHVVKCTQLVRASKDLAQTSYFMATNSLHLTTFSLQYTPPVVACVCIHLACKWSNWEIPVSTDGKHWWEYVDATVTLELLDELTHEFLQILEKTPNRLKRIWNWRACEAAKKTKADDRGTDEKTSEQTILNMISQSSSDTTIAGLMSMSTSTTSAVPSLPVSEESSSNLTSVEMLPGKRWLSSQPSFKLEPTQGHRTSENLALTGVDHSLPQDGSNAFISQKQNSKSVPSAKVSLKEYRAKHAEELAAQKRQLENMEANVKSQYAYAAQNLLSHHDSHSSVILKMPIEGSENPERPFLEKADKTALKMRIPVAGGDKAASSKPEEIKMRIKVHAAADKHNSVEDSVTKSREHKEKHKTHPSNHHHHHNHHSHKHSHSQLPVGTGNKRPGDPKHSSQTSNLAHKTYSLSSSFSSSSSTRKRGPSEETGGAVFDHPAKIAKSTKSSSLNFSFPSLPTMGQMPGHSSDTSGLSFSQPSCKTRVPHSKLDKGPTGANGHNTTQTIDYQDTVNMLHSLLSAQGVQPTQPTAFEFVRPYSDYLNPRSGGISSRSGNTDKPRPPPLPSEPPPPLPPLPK
- Run Description: CDK protein kinase inhibition by ADP-Glo assay, CDK9-CYCLIN T1
- Format: biochemical
- Test Conditions: ADP-Glo, 1000 μM ATP; Table 21; read-out: CDK9-CYCLINT1, IC50

## Input Tell me the measured IC50 of C[C@H]1CCCNC(=O)O[C@@H]2CC[C@@H](C2)c2cc([nH]n2)Nc2cccc(c2)O1 [Compound 157] , please.
## Output 100 to 500 nM

## Input Tell me the measured IC50 of C[C@H]1CC[C@H](C)Oc2cncc(c2)Nc2cc(n[nH]2)[C@H]2CC[C@H](C2)OC(=O)N1 [Compound 151] , please.
## Output 100 to 500 nM

## Input Tell me the measured IC50 of C[C@@H]1CC[C@H](C)Oc2cncc(c2)Nc2cc(n[nH]2)[C@H]2CC[C@H](C2)OC(=O)N1 [Compound 152] , please.
## Output 100 to 500 nM

## Input Tell me the measured IC50 of C[C@H]1CC[C@H](C)Oc2cc(ccn2)Nc2cc(n[nH]2)[C@H]2CC[C@H](C2)OC(=O)N1 [compound 162] , please.
## Output 100 to 500 nM

## Input Tell me the measured IC50 of C[C@@H]1Oc2cncc(c2)Nc2cc(n[nH]2)[C@H]2CC[C@H](C2)OC(=O)N[C@H]2C[C@H]1C2 [Compound 150] , please.
## Output 100 to 500 nM

## Input Tell me the measured IC50 of C[C@H]1Oc2cncc(c2)Nc2cc(n[nH]2)[C@H]2CC[C@H](C2)OC(=O)N[C@H]2C[C@H]1C2 [Compound 148] , please.
## Output 100 to 500 nM

## Input Tell me the measured IC50 of O=C1NCCCO[C@@H](C(F)(F)F)c2cc(ccn2)Nc2cc(n[nH]2)[C@H]2CC[C@H](C2)O1 [Compound 161] , please.
## Output 10 to 50 nM

## Input Tell me the measured IC50 of C[C@H]1Oc2cc(ccn2)Nc2cc(n[nH]2)[C@H]2CC[C@H](C2)OC(=O)N[C@H]2C[C@H]1C2 [Compound 144] , please.
## Output 100 to 500 nM

## Input Tell me the measured IC50 of C[C@@H]1Oc2cc(ccn2)Nc2cc(n[nH]2)[C@H]2CC[C@H](C2)OC(=O)N[C@H]2C[C@H]1C2 [compound 146] , please.
## Output > 500 nM

The reported measurements were obtained from patent US20240317777A1.
